# ASSAY_SUMMARY: Mouse Activity and Screen Test Procedure (MAST): screen test
# Format: in vivo, Swiss-Webster male mice
# CONDITION_SUMMARY: IP, 10 mg/kg
Reported values of Inhibition of screen test failure for individual entries
MEASURE_NAME: Inhibition of screen test failure (%)

1. OC[C@H]1O[C@@H](n2cnc3c(NCC4(c5ccccc5)CCCCC4)ncnc32)[C@H](O)[C@@H]1O [Example 11, N6-((1-Phenylcyclohexyl)methyl)adenosine]; 0
2. OC[C@H]1O[C@@H](n2cnc3c(NCC4(c5ccccc5)CC4)ncnc32)[C@H](O)[C@@H]1O [Example 1]; 0
3. O[C@@H]1[C@H](O)[C@@H](CCl)O[C@H]1n1cnc2c(NCC3(c4ccccc4)CC3)ncnc21 [Example 5]; 0

---

Reported values of Inhibition of screen test failure for individual entries
# ASSAY_SUMMARY: Mouse Activity and Screen Test Procedure (MAST): screen test
# Format: in vivo, Swiss-Webster male mice
# CONDITION_SUMMARY: IP, 30 mg/kg
MEASURE_NAME: Inhibition of screen test failure (%)

1. O[C@@H]1[C@H](O)[C@@H](CCl)O[C@H]1n1cnc2c(NCC3(c4cccs4)CC3)ncnc21 [Example 6]; 0
2. OC[C@H]1O[C@@H](n2cnc3c(NCC4(c5ccc(Cl)cc5)CC4)ncnc32)[C@H](O)[C@@H]1O [Example 12]; 0
3. OC[C@H]1O[C@@H](n2cnc3c(NCC4(c5cccs5)CCC4)ncnc32)[C@H](O)[C@@H]1O [Example 9]; 0
4. OC[C@H]1O[C@@H](n2cnc3c(NCC4(c5ccccc5)CC4)ncnc32)[C@H](O)[C@@H]1O [Example 1]; 22
5. OC[C@H]1O[C@@H](n2cnc3c(NCC4(c5cccc(Cl)c5)CC4)ncnc32)[C@H](O)[C@@H]1O [Example 2]; 0
6. OC[C@H]1O[C@@H](n2cnc3c(NCC4(c5ccccc5)CCCCC4)ncnc32)[C@H](O)[C@@H]1O [Example 11, N6-((1-Phenylcyclohexyl)methyl)adenosine]; 0
7. OC[C@H]1O[C@@H](n2cnc3c(NCC4(c5ccccc5)CCCC4)ncnc32)[C@H](O)[C@@H]1O [Example 10]; 22
8. OC[C@H]1O[C@@H](n2cnc3c(NCC4(c5cccc(Cl)c5)CCC4)ncnc32)[C@H](O)[C@@H]1O [Example 8]; 0
9. O[C@@H]1[C@H](O)[C@@H](CCl)O[C@H]1n1cnc2c(NCC3(c4ccccc4)CC3)ncnc21 [Example 5]; 0

---

# EXPERIMENTAL_TARGET: adenosine A1 receptor (Rattus norvegicus)
# Construct: Whole brain minus cerebellum and brainstem from male Long-Evans rats; from tissue; host or cells: whole brain minus cerebellum and brainstem, male Long-Evans rats
# ASSAY_SUMMARY: Adenosine Receptor Binding--A1 Receptor Affinity (RBA1), [3H]-CHA, whole brain membranes
# CONDITION_SUMMARY: read-out: RBA-1 IC50
pIC50: −log10 of the molar value.
Reported values of pIC50 for individual entries
MEASURE_NAME: pIC50

1) OC[C@H]1O[C@@H](n2cnc3c(NCC4(c5ccccc5)CCCCC4)ncnc32)[C@H](O)[C@@H]1O [Example 11, N6-((1-Phenylcyclohexyl)methyl)adenosine]; 6.39
2) OC[C@H]1O[C@@H](n2cnc3c(NCC4(c5ccccc5)CCCC4)ncnc32)[C@H](O)[C@@H]1O [Example 10]; 6.96
3) OC[C@H]1O[C@@H](n2cnc3c(NCC4(c5cccc(Cl)c5)CC4)ncnc32)[C@H](O)[C@@H]1O [Example 2]; 7.49
4) OC[C@H]1O[C@@H](n2cnc3c(NCC4(c5cccc(Cl)c5)CCC4)ncnc32)[C@H](O)[C@@H]1O [Example 8]; 7.51
5) OC[C@H]1O[C@@H](n2cnc3c(NCC4(c5ccccc5)CC4)ncnc32)[C@H](O)[C@@H]1O [Example 1]; 7.55

---

# EXPERIMENTAL_TARGET: adenosine A1 receptor (Rattus norvegicus, UniProt P25099)
# Construct: Whole brain minus cerebellum and brainstem from male Long-Evans rats
# Sequence (P25099 1-326): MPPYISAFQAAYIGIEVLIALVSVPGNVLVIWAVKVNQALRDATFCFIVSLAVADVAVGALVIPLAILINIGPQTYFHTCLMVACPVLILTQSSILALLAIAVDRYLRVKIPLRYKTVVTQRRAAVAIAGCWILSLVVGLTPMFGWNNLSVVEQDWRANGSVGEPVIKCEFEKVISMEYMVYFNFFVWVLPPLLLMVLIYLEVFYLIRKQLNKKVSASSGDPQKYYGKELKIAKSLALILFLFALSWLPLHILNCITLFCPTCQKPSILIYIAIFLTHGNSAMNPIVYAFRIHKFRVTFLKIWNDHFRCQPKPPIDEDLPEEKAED
# ASSAY_SUMMARY: Adenosine Receptor Binding--A1 Receptor Affinity (RBA1), [3H]-CHA, whole brain membranes
# CONDITION_SUMMARY: read-out: RBA-1 IC50
pIC50: −log10 of the molar value.
Think of 7 as a floor: if pIC50 stands on it or above, it is satisfied; beneath it, not satisfied.

1) O[C@@H]1[C@H](O)[C@@H](CCl)O[C@H]1n1cnc2c(NCC3(c4cccs4)CC3)ncnc21; satisfied
2) OC[C@H]1O[C@@H](n2cnc3c(NCC4(c5ccccc5)CCC4)ncnc32)[C@H](O)[C@@H]1O; satisfied
3) OC[C@H]1O[C@@H](n2cnc3c(NCC4(c5cccs5)CCC4)ncnc32)[C@H](O)[C@@H]1O; satisfied
4) O[C@@H]1[C@H](O)[C@@H](CCl)O[C@H]1n1cnc2c(NCC3(c4ccccc4)CC3)ncnc21; satisfied
5) OC[C@H]1O[C@@H](n2cnc3c(NCC4(c5cccs5)CC4)ncnc32)[C@H](O)[C@@H]1O; satisfied
6) [O-][n+]1cnc2c(ncn2[C@@H]2O[C@H](CO)[C@@H](O)[C@H]2O)c1NCC1(c2ccccc2)CC1; not satisfied

---

# ASSAY_SUMMARY: Mouse Activity and Screen Test Procedure (MAST): screen test
# Assay type: in vivo, Swiss-Webster male mice
# CONDITION_SUMMARY: IP, 3 mg/kg
Reported values of Inhibition of screen test failure for individual entries
MEASURE_NAME: Inhibition of screen test failure (%)

1. OC[C@H]1O[C@@H](n2cnc3c(NCC4(c5ccccc5)CCC4)ncnc32)[C@H](O)[C@@H]1O; 0
2. OC[C@H]1O[C@@H](n2cnc3c(NCC4(c5cccs5)CC4)ncnc32)[C@H](O)[C@@H]1O; 0
3. OC[C@H]1O[C@@H](n2cnc3c(NCC4(c5ccc(Cl)cc5)CC4)ncnc32)[C@H](O)[C@@H]1O; 0
4. OC[C@H]1O[C@@H](n2cnc3c(NCC4(c5cccc(Cl)c5)CCC4)ncnc32)[C@H](O)[C@@H]1O; 0
5. O[C@@H]1[C@H](O)[C@@H](CCl)O[C@H]1n1cnc2c(NCC3(c4ccccc4)CC3)ncnc21; 11
6. O[C@@H]1[C@H](O)[C@@H](CCl)O[C@H]1n1cnc2c(NCC3(c4cccs4)CC3)ncnc21; 0
7. OC[C@H]1O[C@@H](n2cnc3c(NCC4(c5ccccc5)CC4)ncnc32)[C@H](O)[C@@H]1O; 0
8. OC[C@H]1O[C@@H](n2cnc3c(NCC4(c5cccs5)CCC4)ncnc32)[C@H](O)[C@@H]1O; 0
9. OC[C@H]1O[C@@H](n2cnc3c(NCC4(c5ccccc5)CCCC4)ncnc32)[C@H](O)[C@@H]1O; 11
10. OC[C@H]1O[C@@H](n2cnc3c(NCC4(c5cccc(Cl)c5)CC4)ncnc32)[C@H](O)[C@@H]1O; 11
11. OC[C@H]1O[C@@H](n2cnc3c(NCC4(c5ccccc5)CCCCC4)ncnc32)[C@H](O)[C@@H]1O; 11
